Target: Type-B CCK receptor (Cavia porcellus, UniProt H0VZC5)
Construct: Cortical and pancreatic membranes were prepared as described; from tissue; host or cells: guinea pig cerebral cortex membranes
Sequence (H0VZC5 1-426): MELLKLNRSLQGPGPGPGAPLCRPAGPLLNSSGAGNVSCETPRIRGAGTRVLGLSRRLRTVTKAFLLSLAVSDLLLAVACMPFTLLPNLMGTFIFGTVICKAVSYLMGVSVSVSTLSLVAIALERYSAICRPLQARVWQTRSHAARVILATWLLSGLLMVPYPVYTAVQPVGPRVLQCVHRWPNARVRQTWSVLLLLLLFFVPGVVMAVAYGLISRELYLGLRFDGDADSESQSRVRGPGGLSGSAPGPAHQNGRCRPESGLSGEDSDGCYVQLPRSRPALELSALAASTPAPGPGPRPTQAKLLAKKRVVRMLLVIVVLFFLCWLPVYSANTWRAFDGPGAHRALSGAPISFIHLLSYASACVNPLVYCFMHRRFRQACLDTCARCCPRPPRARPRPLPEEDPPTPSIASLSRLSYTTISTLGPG
Assay: Radioligand binding of [125I]BH-CCK-8 in guinea pig cerebral cortical membrane preparations
Conditions: guinea pig cortical membranes, 30° C., 150 minutes; read-out: IC50 (nM) 125I-BH-CCK-8 Type-B receptor
Protocol: CCK-8 [Asp-Tyr(SO3 H)-Met-Gly-Trp-Met-Asp-PheNH2 ], bestatin and phosphoramidion were purchased from Peptide International (Louisville, Ky.). […] [^125 I]Bolton-Hunter CCK-8 and test compounds were diluted with HEPES-EGTA-salt buffer (see above) containing 0.5% BSA. […] IC50 s were determined from the Hill analysis.
Where a SMILES comes first, the peptide text is derived from it. [ ]: non-standard residue; d: D form. The star is where a group is joined. 2Naphthoyl(6-OH) = O=C(c1ccc2cc(O)ccc2c1)*; X12 = O=C(C=Cc1ccc(C(F)(F)F)cc1)*; NMeF = CN[C@@H](Cc1ccccc1)C(=O)O; NMeD = CN[C@@H](CC(=O)O)C(=O)O; X1 = O=C(C=Cc1ccc(O)cc1)*; Boc = CC(C)(C)OC(=O)*
Below, each of the molecules is paired with its reported IC50 value.
Unit nM implied. Number only.

Here's what some known entries look like.
MOLECULE	READOUT_VALUE
CN(C(=O)[C@H](CCCCNC(=O)C=Cc1ccc(O)cc1)NC(=O)[C@H](Cc1c[nH]c2ccccc12)NC(=O)OC(C)(C)C)[C@@H](CC(=O)O)C(=O)N[C@@H](Cc1ccccc1)C(N)=O [Example 71] (Boc-WK(X1)[NMeD]F-NH2)	5800
CC(C)(C)OC(=O)N[C@@H](Cc1c[nH]c2ccccc12)C(=O)N[C@@H](CCCCNC(=O)C=Cc1ccc(C(F)(F)F)cc1)C(=O)N[C@@H](CC(=O)O)C(=O)N[C@@H](Cc1ccccc1)C(N)=O [Example 8] (Boc-WK(X12)DF-NH2)	5300
Cc1ccccc1NC(=O)NCCCC[C@H](NC(=O)CCc1c[nH]c2ccccc12)C(=O)N(C)[C@@H](CC(=O)O)C(=O)N(C)[C@@H](Cc1ccccc1)C(N)=O	2500

Continue with the molecule presented below.
Qu. Which measured IC50 value corresponds to CN(C(=O)[C@H](CCCCNC(=O)c1ccc2cc(O)ccc2c1)NC(=O)[C@H](Cc1c[nH]c2ccccc12)NC(=O)OC(C)(C)C)[C@@H](CC(=O)O)C(=O)N(C)[C@@H](Cc1ccccc1)C(N)=O [Example 73] (Boc-WK(2Naphthoyl(6-OH))[NMeD][NMeF]-NH2) ?
Ans. 3700

Hey, just so you know, these numbers are from patent US5270302A.
